target: α-amylase (Sus scrofa); assay: Three-dimensional fluorescence spectroscopy of α-amylase complexes; conditions: 298 K; TAPP 2.5, THPP 10, TCPP 10, Fe–TCPP 12.5, Ni–TCPP 17.5, Cu–TCPP 10 μg/mL
Sequence (P00690 16-511): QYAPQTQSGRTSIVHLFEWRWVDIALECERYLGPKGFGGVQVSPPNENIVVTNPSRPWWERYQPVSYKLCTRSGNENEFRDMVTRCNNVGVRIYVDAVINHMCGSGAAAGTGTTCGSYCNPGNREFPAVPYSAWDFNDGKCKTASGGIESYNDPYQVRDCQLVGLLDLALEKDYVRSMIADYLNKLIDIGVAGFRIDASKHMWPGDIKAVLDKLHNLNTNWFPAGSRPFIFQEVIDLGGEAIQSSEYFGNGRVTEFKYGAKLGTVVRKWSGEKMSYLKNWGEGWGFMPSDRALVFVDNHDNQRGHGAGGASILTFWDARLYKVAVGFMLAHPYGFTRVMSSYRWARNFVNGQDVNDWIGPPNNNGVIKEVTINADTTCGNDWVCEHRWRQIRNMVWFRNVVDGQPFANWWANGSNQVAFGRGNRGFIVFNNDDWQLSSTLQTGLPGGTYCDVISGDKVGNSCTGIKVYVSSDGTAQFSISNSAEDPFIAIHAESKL
Respond with Satisfied for Peak 2 Fluorescence Intensity values of 20 and above, Not satisfied for values below.

compound: O=C(O)c1ccc(-c2c3nc(c(-c4ccc(C(=O)O)cc4)c4ccc([nH]4)c(-c4ccc(C(=O)O)cc4)c4nc(c(-c5ccc(C(=O)O)cc5)c5ccc2[nH]5)C=C4)C=C3)cc1 [TCPP]
classLabel: Satisfied

compound: Nc1ccc(-c2c3nc(c(-c4ccc(N)cc4)c4ccc([nH]4)c(-c4ccc(N)cc4)c4nc(c(-c5ccc(N)cc5)c5ccc2[nH]5)C=C4)C=C3)cc1 [TAPP]
classLabel: Not satisfied

compound: Oc1ccc(-c2c3nc(c(-c4ccc(O)cc4)c4ccc([nH]4)c(-c4ccc(O)cc4)c4nc(c(-c5ccc(O)cc5)c5ccc2[nH]5)C=C4)C=C3)cc1 [THPP]
classLabel: Satisfied

compound: O=C(O)c1ccc(-c2c3nc(c(-c4ccc(C(=O)O)cc4)c4ccc([nH]4)c(-c4ccc(C(=O)O)cc4)c4nc(c(-c5ccc(C(=O)O)cc5)c5ccc2[nH]5)C=C4)C=C3)cc1.[Cu+2] [Cu–TCPP]
classLabel: Not satisfied

compound: O=C(O)c1ccc(-c2c3nc(c(-c4ccc(C(=O)O)cc4)c4ccc([nH]4)c(-c4ccc(C(=O)O)cc4)c4nc(c(-c5ccc(C(=O)O)cc5)c5ccc2[nH]5)C=C4)C=C3)cc1.[Ni+2] [Ni–TCPP]
classLabel: Not satisfied
